Where these numbers come from: patent US8883963B2

Record form. Attribute: Human GLP-1 R activity (cAMP release), % activity with respect to control. Fill in for each entry.
target: Human GLP-1 receptor (Homo sapiens, UniProt P43220)
Construct: The full-length cDNA was cloned in pcDNA3.1(+); expressed in transfected cells
Sequence (P43220 24-463): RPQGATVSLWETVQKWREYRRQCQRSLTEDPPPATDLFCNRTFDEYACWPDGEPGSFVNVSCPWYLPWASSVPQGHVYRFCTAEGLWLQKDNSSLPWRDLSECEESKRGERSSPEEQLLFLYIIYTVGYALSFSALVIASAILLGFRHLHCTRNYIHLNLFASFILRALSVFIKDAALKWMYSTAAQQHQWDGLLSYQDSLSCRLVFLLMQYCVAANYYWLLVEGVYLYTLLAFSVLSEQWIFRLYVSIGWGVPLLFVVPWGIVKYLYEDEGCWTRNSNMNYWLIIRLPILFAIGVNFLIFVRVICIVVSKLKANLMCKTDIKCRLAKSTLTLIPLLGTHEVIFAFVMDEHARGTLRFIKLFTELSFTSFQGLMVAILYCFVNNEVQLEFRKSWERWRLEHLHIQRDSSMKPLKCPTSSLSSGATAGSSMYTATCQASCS
procedure text: In vitro Human GLP-1 R agonist activity (cyclic AMP determination) in CHO/human GLP1R cells
Assay type: cell-based
details: 100 nM test compound
Numbers only, in %.

{"compound": "CCc1cc(OC)ccc1-c1ccc(CC(CNC(CCCc2ccccc2)C(N)=O)NC(=O)[C@H](CC(=O)O)NC(=O)[C@H](CO)NC(=O)[C@@H](NC(=O)C(C)(Cc2ccccc2F)NC(=O)[C@@H](NC(=O)CNC(=O)[C@H](CCC(N)=O)NC(=O)C(C)(C)NC(=O)[C@H](Cc2c[nH]cn2)NC(C)=O)[C@H](C)O)[C@H](C)O)cc1 (single isomer, unassigned) [compound 185]", "recorded measurement": 90}

# compound CCc1cc(OC)ccc1-c1ccc(CC(NC(=O)[C@H](CC(=O)O)NC(=O)[C@H](CO)NC(=O)[C@@H](NC(=O)C(C)(Cc2ccccc2F)NC(=O)[C@@H](NC(=O)CNC(=O)C(CCC#N)NC(=O)C(C)(C)NC(=O)[C@@H](N)Cc2c[nH]cn2)[C@H](C)O)[C@H](C)O)C(=O)NC(CCCc2ccccc2F)C(N)=O)cc1 (single isomer, unassigned) [compound 116] ; its Human GLP-1 R activity (cAMP release), % activity with respect to control = 92

* * *

Record form. Attribute: Human GLP-1 R activity (cAMP release), % activity with respect to control. Fill in for each entry.
target: Human GLP-1 receptor (Homo sapiens)
Construct: The full-length cDNA was cloned in pcDNA3.1(+); expressed in transfected cells
procedure text: In vitro Human GLP-1 R agonist activity (cyclic AMP determination) in CHO/human GLP1R cells
Assay type: cell-based
details: 1 nM test compound
Numbers only, in %.

Reference set, count: 5
{"molecule": "CCc1cc(OC)ccc1-c1ccc(CC(NC(=O)[C@H](CC(=O)O)NC(=O)[C@H](CO)NC(=O)[C@@H](NC(=O)[C@H](Cc2ccccc2)NC(=O)[C@@H](NC(=O)CNC(=O)[C@H](CCC(N)=O)NC(=O)[C@H](CO)NC(=O)[C@@H](N)Cc2c[nH]cn2)[C@@H](C)O)[C@@H](C)O)C(=O)NC(CCCc2ccccc2Cl)C(N)=O)cc1 (single isomer, unassigned)", "recorded measurement": 60}
{"molecule": "CCc1cc(OC)ccc1-c1ccc(CC(CNC(CCCc2ccccc2F)C(N)=O)NC[C@H](CC(=O)O)NC(=O)[C@H](CO)NC(=O)[C@@H](NC(=O)C(C)(Cc2ccccc2F)NC(=O)[C@@H](NC(=O)CNC(=O)C(CCC#N)NC(=O)C(C)(C)NC(=O)[C@@H](N)Cc2c[nH]cn2)[C@H](C)O)[C@H](C)O)cc1 (single isomer, unassigned)", "recorded measurement": 96}
{"molecule": "CCc1cc(OC)ccc1-c1ccc(CC(NC(=O)[C@H](CC(=O)O)NC(=O)[C@H](CO)NC(=O)[C@@H](NC(=O)[C@H](Cc2ccccc2)NC(=O)[C@@H](NC(=O)CNC(=O)[C@H](CCC(N)=O)NC(=O)[C@H](C)NC(=O)[C@@H](N)Cc2c[nH]cn2)[C@@H](C)O)[C@@H](C)O)C(=O)NC(CCCc2ccc(Cl)cc2C)C(N)=O)cc1 (single isomer, unassigned)", "recorded measurement": 99}
{"molecule": "CCc1cc(OC)ccc1-c1ccc(CC(CNC(CCCc2ccccc2)C(N)=O)NC[C@H](CC(=O)O)NC(=O)[C@H](CO)NC(=O)[C@@H](NC(=O)C(C)(Cc2ccccc2F)NC(=O)[C@@H](NC(=O)CNC(=O)[C@H](CCC(N)=O)NC(=O)C(C)(C)NC(=O)[C@H](Cc2c[nH]cn2)NC(=O)OC)[C@H](C)O)[C@H](C)O)cc1 (single isomer, unassigned)", "recorded measurement": 82}
{"molecule": "CCc1cc(OC)ccc1-c1ccc(CC(NC(=O)[C@H](CC(=O)O)NC(=O)[C@H](CO)NC(=O)[C@@H](NC(=O)C(C)(Cc2ccccc2)NC(=O)[C@@H](NC(=O)CNC(=O)[C@H](CC(C(F)(F)F)C(F)(F)F)NC(=O)C(C)(C)NC(=O)[C@@H](N)Cc2c[nH]cn2)[C@@H](C)O)[C@@H](C)O)C(=O)NC(CCCc2ccccc2)C(N)=O)cc1 (single isomer, unassigned)", "recorded measurement": 99}

Next molecule, Human GLP-1 R activity (cAMP release), % activity with respect to control to be filled in.
# molecule CCc1cc(OC)ccc1-c1ccc(CC(CNC(CCCc2ccccc2)C(N)=O)NC(=O)[C@H](CC(=O)O)NC(=O)[C@H](CO)NC(=O)[C@@H](NC(=O)C(C)(Cc2ccccc2F)NC(=O)[C@@H](NC(=O)CNC(=O)[C@H](CCC(N)=O)NC(=O)C(C)(C)NC(=O)[C@H](Cc2c[nH]cn2)NC(C)=O)[C@H](C)O)[C@H](C)O)cc1 (single isomer, unassigned) ; its Human GLP-1 R activity (cAMP release), % activity with respect to control = 46
